System: S. aureus SA158 (tet resistant: tetK efflux)
Experiment: microbe, parasite or virus in culture
Type: cell-based
Conditions: Staphylococcus aureus, read-out: MICs SA158
Lab note - cut at 0.5 mg/L for MIC: fulfilled if strictly below, not fulfilled if not.

compound	assayed.system	assigned.class
CN(C)[C@@H]1CCN(CC(=O)Nc2cc(F)c3c(c2O)C(=O)C2=C(O)[C@]4(O)C(=O)C(C(N)=O)=C(O)[C@@H](N(C)C)[C@@H]4C[C@@H]2C3)C1 [Compound 37]	S. aureus SA158 (tet resistant: tetK efflux)	not fulfilled
CN(C)[C@@H]1C(O)=C(C(N)=O)C(=O)[C@@]2(O)C(O)=C3C(=O)c4c(O)c(NC(=O)CN5CC[C@H](F)C5)cc(F)c4C[C@H]3C[C@@H]12 [Compound 36]	S. aureus SA158 (tet resistant: tetK efflux)	not fulfilled

[in] hey, is MIC for CN(C)[C@@H]1C(O)=C(C(N)=O)C(=O)[C@@]2(O)C(O)=C3C(=O)c4c(O)c(NC(=O)CNCC(F)(F)F)cc(F)c4C[C@H]3C[C@@H]12 [Compound 22] lower than 0.5 mg/L or not?
[out] not fulfilled
